- method_notes: Phase 1 trial: pharmacokinetics of surufatinib and toripalimab (non-compartmental analysis)
- Format: in vivo, human
- run_conditions: human, in vivo, oral, surufatinib 200 mg + toripalimab 240 mg; C3D1; N 3; read-out: Surufatinib Tmax, median
test_readout: Tmax (h)
Provide only the numeric value, understood in h.

query: State its Tmax: Cc1cc2cc(Oc3ccnc(Nc4cccc(CS(=O)(=O)NCCN(C)C)c4)n3)ccc2[nH]1
result: 1.98

* * *

- method_notes: Phase 1 trial: pharmacokinetics of surufatinib and toripalimab (non-compartmental analysis)
- Assay type: in vivo, human
- run_conditions: human, in vivo, oral, surufatinib 250 mg + toripalimab 240 mg; C1D1; N 12; read-out: Surufatinib t1/2, median (converted)
- Method: Blood samples were collected for PK evaluation at multiple time points on Cycle 1 Day 1, Cycle 2 Day 1, and Cycle 3 Day 1 for surufatinib and toripalimab, respectively. […] Two-sided 95% confidence interval (CI) of ORR and DCR were computed using the Exact (Clopper–Pearson) method. […] PK parameters were calculated by non-compartmental analysis using Phoenix WinNonlin v8.0.
test_readout: half-life (h)
Provide only the numeric value, understood in h.

query: State its half-life: Cc1cc2cc(Oc3ccnc(Nc4cccc(CS(=O)(=O)NCCN(C)C)c4)n3)ccc2[nH]1 [surufatinib]
result: 11.1
